Parameter: EC50. Scope: all listed entries.
molecular target: CFTR ΔF508 mutant (Homo sapiens, UniProt P13569, DEL508-508); construct: expressed in transfected cells; host or cells: CFBE41o- (adenoviral transduction); test: YFP-halide influx assay for the CFTR-ΔF508 mutation (384 well, FDSS/μCell); type: cell-based; conditions: CFBE41o- cells, CFTR-ΔF508, 1×D-PBS, fluorescence after 36 seconds
Sequence (P13569 with tags, fused parts or gaps DEL508-508): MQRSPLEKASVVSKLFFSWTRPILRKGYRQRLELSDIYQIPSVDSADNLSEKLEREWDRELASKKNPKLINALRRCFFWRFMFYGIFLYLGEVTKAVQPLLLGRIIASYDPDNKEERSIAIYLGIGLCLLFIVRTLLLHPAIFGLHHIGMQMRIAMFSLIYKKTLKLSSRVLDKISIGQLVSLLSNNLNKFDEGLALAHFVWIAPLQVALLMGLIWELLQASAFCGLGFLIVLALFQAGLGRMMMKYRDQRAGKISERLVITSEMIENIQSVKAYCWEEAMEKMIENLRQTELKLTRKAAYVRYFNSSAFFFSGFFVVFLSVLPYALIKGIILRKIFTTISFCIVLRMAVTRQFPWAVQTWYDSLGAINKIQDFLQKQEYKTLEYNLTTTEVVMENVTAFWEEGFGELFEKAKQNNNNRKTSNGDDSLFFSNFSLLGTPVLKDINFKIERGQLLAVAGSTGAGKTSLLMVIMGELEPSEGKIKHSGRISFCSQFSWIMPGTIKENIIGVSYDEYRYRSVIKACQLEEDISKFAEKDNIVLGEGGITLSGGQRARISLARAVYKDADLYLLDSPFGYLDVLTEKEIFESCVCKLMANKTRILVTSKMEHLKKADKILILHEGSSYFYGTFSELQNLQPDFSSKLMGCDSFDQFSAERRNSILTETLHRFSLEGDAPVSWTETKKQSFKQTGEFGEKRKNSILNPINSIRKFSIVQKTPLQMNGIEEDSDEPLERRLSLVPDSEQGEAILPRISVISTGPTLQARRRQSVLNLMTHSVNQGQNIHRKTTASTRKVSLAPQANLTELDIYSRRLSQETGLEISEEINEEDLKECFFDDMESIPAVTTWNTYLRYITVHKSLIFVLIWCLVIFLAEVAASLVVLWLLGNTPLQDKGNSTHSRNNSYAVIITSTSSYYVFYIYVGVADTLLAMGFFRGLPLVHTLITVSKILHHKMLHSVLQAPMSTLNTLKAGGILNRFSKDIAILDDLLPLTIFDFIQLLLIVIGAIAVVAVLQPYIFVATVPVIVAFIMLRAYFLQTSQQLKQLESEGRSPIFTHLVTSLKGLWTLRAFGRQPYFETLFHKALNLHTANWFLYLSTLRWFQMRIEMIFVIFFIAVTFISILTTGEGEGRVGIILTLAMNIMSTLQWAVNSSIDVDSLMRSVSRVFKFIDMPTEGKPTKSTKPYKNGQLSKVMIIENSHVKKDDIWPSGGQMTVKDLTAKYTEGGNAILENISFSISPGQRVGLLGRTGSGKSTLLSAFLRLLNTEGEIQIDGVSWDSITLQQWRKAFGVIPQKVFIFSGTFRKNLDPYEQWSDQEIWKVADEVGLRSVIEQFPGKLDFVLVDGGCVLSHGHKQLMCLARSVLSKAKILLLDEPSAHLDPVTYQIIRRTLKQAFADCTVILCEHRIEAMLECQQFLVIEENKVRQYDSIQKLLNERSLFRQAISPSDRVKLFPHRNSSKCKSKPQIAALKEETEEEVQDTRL
Report the value in nM with no unit label.

> print(dat)
                                   molecule                             tested.system  measurement.kind  units.of.measure  numeric.result
1  CC(C)C(O)C(=O)Nc1sc(S(=O)(=O)c2ccc(OC(F)(F)F)cc2)cc1C(N)=O (stereo not shown) [Compound 345]  CFTR ΔF508 mutant (Homo sapiens, UniProt P13569, DEL508-508)              EC50                nM             111

Exercise: Can you share its EC50? I mean this molecule: NC(=O)c1cc(S(=O)(=O)c2ccc(Cl)cc2)sc1NC(=O)C1(O)CC1 [Compound 225]
Key: 26.5

Exercise: Same for CC(C)(O)C(=O)Nc1sc(S(=O)(=O)c2ncccc2C(F)(F)F)cc1C(N)=O [Compound 411]
Key: 61

Exercise: Same for CN(CC1CC1)S(=O)(=O)c1cc(C(N)=O)c(NC(=O)c2cc[nH]n2)s1 [Compound 193]
Key: 49.5

Exercise: Same for CC(C)(O)C(=O)Nc1sc(S(=O)(=O)c2cccc(C#N)c2)cc1C(N)=O [Compound 409]
Key: 47.7

Exercise: Same for CC(C)Oc1ccc(S(=O)(=O)c2cc(C(N)=O)c(NC(=O)C(C)(C)O)s2)c(C(F)(F)F)c1 [Compound 324]
Key: 84.2

Exercise: Same for CC(C)(O)C(=O)Nc1sc(S(=O)(=O)c2cc(Cl)ccc2F)cc1C(N)=O [Compound 303]
Key: 8.5

Exercise: Same for CC(C)(O)C(=O)Nc1sc(S(=O)(=O)c2ncc(C(F)(F)F)cc2F)cc1C(N)=O [Compound 410]
Key: 14.1

Exercise: Same for COc1ccc(CN(C)S(=O)(=O)c2cc(C(N)=O)c(NC(=O)C3(O)CC3)s2)cc1 [Compound 235]
Key: 76.6

Exercise: Same for CC(C)(O)C(=O)Nc1sc(S(=O)(=O)c2ccsc2C(F)(F)F)cc1C(N)=O [Compound 425]
Key: 6.9

Exercise: Same for CC(O)C(=O)Nc1sc(S(=O)(=O)c2cc(F)ccc2Cl)cc1C(N)=O (stereo not shown) [Compound 333]
Key: 12.6

---

Parameter: EC50. Scope: all listed entries.
molecular target: CFTR-S549N (Homo sapiens, UniProt P13569, S549N); construct: expressed in transfected cells; assay: YFP-halide influx assay for the CFTR-S549N; format: cell-based
Sequence (P13569 whole entry S549N): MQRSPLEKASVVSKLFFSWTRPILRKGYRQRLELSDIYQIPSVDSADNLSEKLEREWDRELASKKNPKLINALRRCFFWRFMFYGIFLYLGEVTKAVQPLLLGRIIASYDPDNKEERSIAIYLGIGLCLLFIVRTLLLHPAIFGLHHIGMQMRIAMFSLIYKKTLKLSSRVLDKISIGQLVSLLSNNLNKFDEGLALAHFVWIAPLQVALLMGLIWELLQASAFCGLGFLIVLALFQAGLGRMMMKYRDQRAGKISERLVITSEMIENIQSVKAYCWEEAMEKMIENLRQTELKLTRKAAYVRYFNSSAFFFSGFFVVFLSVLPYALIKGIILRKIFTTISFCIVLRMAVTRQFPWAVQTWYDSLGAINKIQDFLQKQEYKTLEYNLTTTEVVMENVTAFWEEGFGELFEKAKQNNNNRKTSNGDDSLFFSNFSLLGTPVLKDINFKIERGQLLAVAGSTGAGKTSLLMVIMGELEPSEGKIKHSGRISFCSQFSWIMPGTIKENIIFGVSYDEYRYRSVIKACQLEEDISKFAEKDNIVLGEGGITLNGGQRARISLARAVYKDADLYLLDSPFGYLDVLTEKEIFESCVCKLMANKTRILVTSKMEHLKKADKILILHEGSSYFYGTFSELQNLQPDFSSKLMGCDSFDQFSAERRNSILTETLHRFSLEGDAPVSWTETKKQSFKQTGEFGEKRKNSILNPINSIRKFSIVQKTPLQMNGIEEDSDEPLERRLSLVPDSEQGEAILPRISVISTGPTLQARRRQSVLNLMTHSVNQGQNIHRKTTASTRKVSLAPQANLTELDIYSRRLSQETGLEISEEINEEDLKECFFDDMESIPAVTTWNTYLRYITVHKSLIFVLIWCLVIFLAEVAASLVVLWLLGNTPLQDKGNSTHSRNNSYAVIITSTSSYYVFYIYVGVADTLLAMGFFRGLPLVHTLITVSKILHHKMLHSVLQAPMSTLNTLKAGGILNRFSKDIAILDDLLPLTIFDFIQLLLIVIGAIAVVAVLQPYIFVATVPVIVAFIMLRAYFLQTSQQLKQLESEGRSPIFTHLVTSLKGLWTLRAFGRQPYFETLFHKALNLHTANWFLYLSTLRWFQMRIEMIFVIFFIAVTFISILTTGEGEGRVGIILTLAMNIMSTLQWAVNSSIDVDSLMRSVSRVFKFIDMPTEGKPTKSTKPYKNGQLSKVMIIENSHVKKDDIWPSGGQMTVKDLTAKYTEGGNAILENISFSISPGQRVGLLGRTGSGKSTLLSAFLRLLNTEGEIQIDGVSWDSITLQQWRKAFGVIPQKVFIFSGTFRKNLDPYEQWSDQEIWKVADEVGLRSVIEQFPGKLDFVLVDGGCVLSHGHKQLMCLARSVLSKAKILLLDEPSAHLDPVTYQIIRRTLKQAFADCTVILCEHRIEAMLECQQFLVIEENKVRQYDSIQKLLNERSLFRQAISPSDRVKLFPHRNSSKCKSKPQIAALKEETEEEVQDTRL
Report the value in nM with no unit label.

Check out these entries, answers already filled in.
> print(dat)
                                smiles.data                             tested.system  numeric.result
1  CC(C)(O)C(=O)Nc1sc(S(=O)(=O)c2cc(Cl)cc(C(F)(F)F)c2)cc1C(N)=O  CFTR-S549N (Homo sapiens, UniProt P13569, S549N)             507
2  CC(C)(O)C(=O)Nc1sc(S(=O)(=O)c2cnc(C(F)(F)F)cn2)cc1C(N)=O  CFTR-S549N (Homo sapiens, UniProt P13569, S549N)             678
3  Cc1cc(C(F)(F)F)cc(S(=O)(=O)c2cc(C(N)=O)c(NC(=O)C(C)(C)O)s2)c1  CFTR-S549N (Homo sapiens, UniProt P13569, S549N)             702

Then there is this molecule:
Exercise: Can you share its EC50? I mean this molecule: `CC(C)(O)C(=O)Nc1sc(S(=O)(=O)c2cccc(C(F)(F)F)n2)cc1C(N)=O`
Key: 1020

---

target: CFTR G551D mutant (Homo sapiens, UniProt P13569, G551D); construct: expressed in transfected cells; host or cells: HEK293 (reverse transfection with plasmid); test: YFP-halide influx assay for the CFTR-G551D mutation; assay type: cell-based; conditions: HEK293 cells, forskolin 10.67 μM
Sequence (P13569 whole entry G551D): as the sequence (P13569 whole entry S549N) above, with N549S, G551D counted along it
Measurement Kind: pEC50
When answering, recall that pEC50 equals minus log10 of the concentration in mol/L, and write that number alone.

Check out these entries, answers already filled in.
> print(dat)
                                   compound  measurement.kind  numeric.result
1  CC(O)C(=O)Nc1sc(S(=O)(=O)c2cc(F)ccc2CC(F)(F)F)cc1C(N)=O (centres unmarked) [Compound 334]             pEC50            6.82
2  CC(C)(O)C(=O)Nc1sc(S(=O)(=O)c2cc(C#N)ccc2OC(F)(F)F)cc1C(N)=O [Compound 372]             pEC50            7.14
3  CC(O)C(=O)Nc1sc(S(=O)(=O)c2c(F)cccc2F)cc1C(N)=O (centres unmarked) [Compound 313]             pEC50            5.53
4  CC(C)(O)C(=O)Nc1sc(S(=O)(=O)c2cccc(C(F)(F)F)c2)cc1C(N)=O [Compound 408]             pEC50            5.75
5  CC(C)(O)C(=O)Nc1sc(S(=O)(=O)c2ccccc2CC(F)(F)F)cc1C(N)=O [Compound 302]             pEC50            6.51
6  COc1ccc(S(=O)(=O)c2cc(C(N)=O)c(NC(=O)C(C)(C)O)s2)cc1 [Compound 400]             pEC50            5.71

Exercise: Can you share its pEC50? I mean this compound: CC(C)(O)C(=O)Nc1sc(S(=O)(=O)c2ccc(OC(F)(F)F)c(F)c2)cc1C(N)=O [Compound 377]
Key: 6.15

Exercise: Same for CC(C)(O)C(=O)Nc1sc(S(=O)(=O)c2c(Cl)cccc2Cl)cc1C(N)=O [Compound 298]
Key: 6.68

---

target: CFTR G551D mutant (Homo sapiens, UniProt P13569, G551D); construct: expressed in transfected cells; host or cells: HEK293 (reverse transfection with plasmid); experiment: YFP-halide influx assay for the CFTR-G551D mutation; type: cell-based; conditions: HEK293 cells, forskolin 10.67 μM
Class assignment keyed on EC50, ranges bottom: < 0.7 µM; middle: ≥ 0.7 µM and < 2 µM; top: ≥ 2 µM

Exercise: Lab note: sort `CC(=O)OC(C)(C)C(=O)Nc1sc(S(=O)(=O)c2ccccc2C(C)C)cc1C(N)=O` into the matching EC50 band.
Key: middle

Exercise: Same for CC(C)C(O)C(=O)Nc1sc(S(=O)(=O)c2ccc(OC(F)(F)F)cc2)cc1C(N)=O (stereo not shown)
Key: bottom

Exercise: Same for CC(CO)C(=O)Nc1sc(S(=O)(=O)c2ccc(F)cc2C(F)(F)F)cc1C(N)=O (stereo not shown)
Key: top

Exercise: Same for `COc1ccc(OC)c(S(=O)(=O)c2cc(C(N)=O)c(NC(=O)C3(O)CC3)s2)c1`
Key: bottom

Exercise: Same for `CC(C)(O)C(=O)Nc1sc(S(=O)(=O)c2ccc(OC(F)F)cc2)cc1C(N)=O`
Key: bottom

Exercise: Same for `CC(C)(O)C(=O)Nc1sc(S(=O)(=O)c2ccc(C(F)F)cn2)cc1C(N)=O`
Key: middle

Exercise: Same for CC(CO)C(=O)Nc1sc(S(=O)(=O)c2ccc(OC(F)(F)F)cc2)cc1C(N)=O (stereo not shown)
Key: bottom

---

target: CFTR ΔF508 mutant (Homo sapiens, UniProt P13569, DEL508-508); construct: expressed in transfected cells; host or cells: CFBE41o- (adenoviral transduction); assay: YFP-halide influx assay for the CFTR-ΔF508 mutation (384 well, FDSS/μCell); assay type: cell-based; conditions: CFBE41o- cells, CFTR-ΔF508, 1×D-PBS, fluorescence after 36 seconds
Parameter: EC50. Scope: all listed entries.
Numeric answer plus unit only.

Check out these entries, answers already filled in.
> print(dat)
                                smiles.data  result
1  Cc1ccc(C(=O)Nc2sc(S(=O)(=O)c3ccccc3)cc2C(N)=O)s1  187 nM
2  COc1c(Cl)ncnc1S(=O)(=O)c1cc(C(N)=O)c(NC(=O)C(C)(C)O)s1  111 nM
3  CC(C)(O)C(=O)Nc1sc(S(=O)(=O)c2cc(C#N)ccc2OC(F)(F)F)cc1C(N)=O  4.8 nM

Exercise: Can you share its EC50? I mean this molecule: `NC(=O)c1cc(S(=O)(=O)c2ccc(F)cc2)sc1NC(=O)C1(CO)CC1`
Key: 27.8 nM
